# targetSystem: Neutrophil elastase (Homo sapiens, UniProt P08246)
# Sequence (P08246 whole entry): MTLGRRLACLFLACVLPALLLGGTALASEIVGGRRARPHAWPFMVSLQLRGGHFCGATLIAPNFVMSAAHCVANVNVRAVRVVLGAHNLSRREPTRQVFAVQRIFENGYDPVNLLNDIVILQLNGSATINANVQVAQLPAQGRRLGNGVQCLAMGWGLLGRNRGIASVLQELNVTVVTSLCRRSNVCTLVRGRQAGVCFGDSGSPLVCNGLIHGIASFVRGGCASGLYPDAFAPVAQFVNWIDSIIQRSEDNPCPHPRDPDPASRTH
# assayExplanation: In vitro inhibitory activity against human leukocyte elastase (HLE) mediated hydrolysis of the synthetic substrate MeO-Suc-Ala-Ala-Pro-Val-pNA
propertyLabel: Ki (nM)

Sample answers from the record:
| molecule | resultUnits | Ki |
| --- | --- | --- |
| COC(=O)Oc1cccc2c3cc(-c4ccccc4)n(CC(=O)NC(C(=O)C(F)(F)F)C(C)C)c(O)c-3nc12 (stereo not given) | nM | 24 |
| CC(C)C(NC(=O)CN1CCc2c([nH]c3c(C(=O)O)cccc23)C1=O)C(=O)C(F)(F)F (stereo not given) | nM | 27 |
| CC(C)C(NC(=O)Cn1ccc2c3ccc(C(=O)O)cc3nc-2c1O)C(=O)C(F)(F)F (stereo not given) | nM | 510 |
| CC(C)C(NC(=O)Cn1c(-c2ccccc2)cc2c3cccc(O)c3nc-2c1O)C(=O)C(F)(F)F (stereo not given) | nM | 6.7 |

1 = CC(C)c1cc2c3cccc(C(=O)O)c3nc-2c(O)n1CC(=O)NC(C(=O)C(F)(F)F)C(C)C (stereo not given)
2 = CC(C)C(NC(=O)Cn1c(-c2ccccc2)cc2c3cccc(C#N)c3nc-2c1O)C(=O)C(F)(F)F (stereo not given)
3 = COc1ccc2nc3c(O)n(CC(=O)NC(C(=O)C(F)(F)F)C(C)C)ccc-3c2c1 (stereo not given)
(Q) Rank ascending by Ki. // list labels; follow requested order
(A) 2, 1, 3
(2: 6.6 nM, 1: 19 nM, 3: 350 nM)

---

# targetSystem: Angiotensin-converting enzyme (Oryctolagus cuniculus, UniProt P12822)
# Sequence (P12822 whole entry): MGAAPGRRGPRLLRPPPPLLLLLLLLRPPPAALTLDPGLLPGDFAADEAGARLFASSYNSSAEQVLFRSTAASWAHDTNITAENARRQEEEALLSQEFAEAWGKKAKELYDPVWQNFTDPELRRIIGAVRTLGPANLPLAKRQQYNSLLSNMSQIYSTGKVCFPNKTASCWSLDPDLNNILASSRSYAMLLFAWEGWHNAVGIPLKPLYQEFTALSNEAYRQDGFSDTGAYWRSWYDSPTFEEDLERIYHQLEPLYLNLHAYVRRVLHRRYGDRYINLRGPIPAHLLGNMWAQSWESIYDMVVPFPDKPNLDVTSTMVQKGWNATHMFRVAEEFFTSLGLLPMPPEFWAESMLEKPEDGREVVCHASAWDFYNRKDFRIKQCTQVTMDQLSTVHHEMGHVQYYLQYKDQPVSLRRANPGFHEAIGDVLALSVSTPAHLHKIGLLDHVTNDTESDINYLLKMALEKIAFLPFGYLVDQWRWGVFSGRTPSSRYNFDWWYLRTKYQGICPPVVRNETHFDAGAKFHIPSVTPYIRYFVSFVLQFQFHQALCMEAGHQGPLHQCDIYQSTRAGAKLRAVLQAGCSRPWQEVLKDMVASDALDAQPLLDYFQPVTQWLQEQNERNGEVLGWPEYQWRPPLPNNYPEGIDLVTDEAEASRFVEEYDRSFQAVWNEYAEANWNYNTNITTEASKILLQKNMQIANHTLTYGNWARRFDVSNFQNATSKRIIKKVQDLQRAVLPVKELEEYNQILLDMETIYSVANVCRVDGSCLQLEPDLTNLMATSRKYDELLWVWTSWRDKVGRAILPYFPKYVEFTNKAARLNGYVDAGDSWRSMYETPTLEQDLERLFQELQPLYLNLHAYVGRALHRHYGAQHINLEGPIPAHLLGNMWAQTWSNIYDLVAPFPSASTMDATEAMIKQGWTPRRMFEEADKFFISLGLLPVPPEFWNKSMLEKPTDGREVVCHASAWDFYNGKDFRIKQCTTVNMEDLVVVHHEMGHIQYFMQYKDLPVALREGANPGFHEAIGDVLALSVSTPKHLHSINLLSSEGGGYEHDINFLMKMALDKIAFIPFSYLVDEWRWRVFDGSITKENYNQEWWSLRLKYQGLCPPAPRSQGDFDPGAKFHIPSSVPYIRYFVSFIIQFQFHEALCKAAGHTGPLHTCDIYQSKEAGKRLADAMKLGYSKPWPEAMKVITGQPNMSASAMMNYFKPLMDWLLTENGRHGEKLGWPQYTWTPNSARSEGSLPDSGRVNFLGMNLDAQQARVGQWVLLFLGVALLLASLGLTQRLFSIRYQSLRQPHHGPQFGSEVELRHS
# assayExplanation: Inhibitory activity against rabbit Angiotensin I converting enzyme
propertyLabel: pKi
Keep it numeric: pKi is minus log10 of the concentration in mol/L.

(Q) Report pKi from Angiotensin-converting enzyme (Oryctolagus cuniculus, UniProt P12822) testing of CC(C)C(NC(=O)Cn1ccc2c3cccc(C(=O)O)c3nc-2c1O)C(=O)C(F)(F)F (stereo unspecified)
(A) 4.03

---

Sequence of the target: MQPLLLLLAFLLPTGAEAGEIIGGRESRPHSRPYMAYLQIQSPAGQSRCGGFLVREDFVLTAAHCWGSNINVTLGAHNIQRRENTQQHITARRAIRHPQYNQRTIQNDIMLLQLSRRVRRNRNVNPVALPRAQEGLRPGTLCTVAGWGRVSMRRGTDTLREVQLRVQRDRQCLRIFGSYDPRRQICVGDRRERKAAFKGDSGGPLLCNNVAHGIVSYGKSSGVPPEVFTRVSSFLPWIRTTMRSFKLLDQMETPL
propertyLabel: pKi
Keep it numeric: pKi is minus log10 of the concentration in mol/L.

(Q) Complete the entry with pKi for CC(C)C(NC(=O)Cn1ccc2c3cccc(C(=O)O)c3nc-2c1O)C(=O)C(F)(F)F (stereo unspecified)
(A) 3.89

---

# targetSystem: UniProt:P00766
# assayExplanation: Inhibitory activity against bovine chymotrypsin
propertyLabel: Ki (nM)

Sample answers from the record:
| compound | propertyLabel | measValue |
| --- | --- | --- |
| CC(C)C(NC(=O)Cn1c(-c2ccccc2)cc2c3ccccc3nc-2c1O)C(=O)C(F)(F)F (stereo not given) | Ki | 430 |
| CC(C)C(NC(=O)Cn1c(-c2ccccc2)cc2c3cccc(C#N)c3nc-2c1O)C(=O)C(F)(F)F (stereo not given) | Ki | 180 |

A = CC(C)c1cc2c3ccccc3nc-2c(O)n1CC(=O)NC(C(=O)C(F)(F)F)C(C)C (stereo not given)
B = CC(C)C(NC(=O)Cn1c(-c2ccccc2)cc2c3cccc(C(=O)O)c3nc-2c1O)C(=O)C(F)(F)F (stereo not given)
C = COP(=O)(OC)c1cccc2c3cc(-c4ccccc4)n(CC(=O)NC(C(=O)C(F)(F)F)C(C)C)c(O)c-3nc12 (stereo not given)
(Q) Rank ascending by Ki. // list labels; follow requested order
(A) A, C, B
(A: 1100 nM, C: 26000 nM, B: 43000 nM)

---

# targetSystem: Neutrophil elastase (Homo sapiens, UniProt P08246)
# assayExplanation: In vitro inhibitory activity against human leukocyte elastase (HLE) mediated hydrolysis of the synthetic substrate MeO-Suc-Ala-Ala-Pro-Val-pNA
pKi: −log10 of the molar value.
propertyLabel: pKi

Sample answers from the record:
| molecule | measValue |
| --- | --- |
| CC(C)C(NC(=O)CN1CCc2c([nH]c3ccccc23)C1=O)C(=O)C(F)(F)F (stereo not given) | 5.96 |
| CC(C)C(NC(=O)Cn1ccc2c3cccc(C(=O)O)c3nc-2c1O)C(=O)C(F)(F)F (stereo not given) | 7.66 |

a = CC(C)C(NC(=O)CN1CCc2c([nH]c3ccc(Cl)cc23)C1=O)C(=O)C(F)(F)F (stereo not given)
b = COC(=O)c1cccc2c3cc(-c4ccccc4)n(CC(=O)NC(C(=O)C(F)(F)F)C(C)C)c(O)c-3nc12 (stereo not given)
c = CCOC(=O)c1ccc2c3ccn(CC(=O)NC(C(=O)C(F)(F)F)C(C)C)c(O)c-3nc2c1 (stereo not given)
(Q) Rank entries according to their pKi, from the largest number down. // list labels; follow requested order
(A) b, c, a
(b: 6.89, c: 6.47, a: 6.00)

---

# targetSystem: Neutrophil elastase (Homo sapiens)
# assayExplanation: In vitro inhibitory activity against human leukocyte elastase (HLE) mediated hydrolysis of the synthetic substrate MeO-Suc-Ala-Ala-Pro-Val-pNA
propertyLabel: Ki (nM)

Sample answers from the record:
| molecule | targetSystem | propertyLabel | measValue |
| --- | --- | --- | --- |
| CC(C)C(NC(=O)Cn1ccc2c3cc(Cl)ccc3nc-2c1O)C(=O)C(F)(F)F (stereo not drawn) | Neutrophil elastase (Homo sapiens) | Ki | 210 |
| COP(=O)(OC)c1cccc2c3cc(-c4ccccc4)n(CC(=O)NC(C(=O)C(F)(F)F)C(C)C)c(O)c-3nc12 (stereo not drawn) | Neutrophil elastase (Homo sapiens) | Ki | 52 |
| CCOC(=O)c1cccc2c3ccn(CC(=O)NC(C(=O)C(F)(F)F)C(C)C)c(O)c-3nc12 (stereo not drawn) | Neutrophil elastase (Homo sapiens) | Ki | 2500 |
| CC(C)C(NC(=O)Cn1c(-c2ccccc2)cc2c3cccc(C=O)c3nc-2c1O)C(=O)C(F)(F)F (stereo not drawn) | Neutrophil elastase (Homo sapiens) | Ki | 4.9 |
| CC(C)c1cc2c3ccccc3nc-2c(O)n1CC(=O)NC(C(=O)C(F)(F)F)C(C)C (stereo not drawn) | Neutrophil elastase (Homo sapiens) | Ki | 54 |

P = CC(C)C(NC(=O)Cn1c(-c2ccccc2)cc2c3cccc(OS(C)(=O)=O)c3nc-2c1O)C(=O)C(F)(F)F (stereo not drawn)
Q = CC(C)C(NC(=O)Cn1ccc2c3ccccc3nc-2c1O)C(=O)C(F)(F)F (stereo not drawn)
R = CC(C)C(NC(=O)Cn1ccc2c3cccc(C(N)=O)c3nc-2c1O)C(=O)C(F)(F)F (stereo not drawn)
(Q) Rank entries according to their Ki, from the largest number down. // list labels; follow requested order
(A) R, Q, P
(R: 730 nM, Q: 290 nM, P: 15 nM)

a = COc1cccc2c3cc(-c4ccccc4)n(CC(=O)NC(C(=O)C(F)(F)F)C(C)C)c(O)c-3nc12 (stereo not drawn)
b = COc1ccc2[nH]c3c(c2c1)CCN(CC(=O)NC(C(=O)C(F)(F)F)C(C)C)C3=O (stereo not drawn)
(Q) Kindly identify which of a and b has the larger recorded Ki value. // return label of chosen record
(A) b
(b: 1100 nM, a: 17 nM)

I = CC(C)C(NC(=O)Cn1c(-c2ccccc2)cc2c3ccccc3nc-2c1O)C(=O)C(F)(F)F (stereo not drawn)
II = COP(=O)(OC)c1ccc2nc3c(O)n(CC(=O)NC(C(=O)C(F)(F)F)C(C)C)c(-c4ccccc4)cc-3c2c1 (stereo not drawn)
(Q) Please indicate which item has the smaller measured Ki: I versus II // return label of chosen record
(A) I

Where these numbers come from: ChEMBL document CHEMBL1128347
